Reference for the values: ChEMBL document CHEMBL5724914

# Experiment: The drug is tested on Z-003 corresponding to pig gut metagenome with ENA study accession number: PRJEB37062 and ENA sample accession number: ERS12561803 for biotransformation under anaerobic condition. The drug concentrations were measured over 9 timepoints collected between 0 and 24 hours of incubation by liquid-chromatography-coupled mass spectrometry (LC–MS); note: call rule not given here
# Experimental Conditions: 2 µM
Recorded Metric: Bacterial Biotransformation

> print(dat)
                                    compound              recorded.metric       experimental.result
 1  CCCCC(=O)N(Cc1ccc(-c2ccccc2-c2nnn[nH]2)cc1)[C@H](C(=O)O)C(C)C  Bacterial Biotransformation  Compound NOT metabolized
 2    OCCOCCN1CCN(C2=Nc3ccccc3Sc3ccccc32)CC1  Bacterial Biotransformation  Compound NOT metabolized
 3  COc1cc2c(c(OC)c1OC)-c1ccc(OC)c(=O)cc1[C@@H](NC(C)=O)CC2  Bacterial Biotransformation  Compound NOT metabolized
 4     O=C(O)CCc1nc(-c2ccccc2)c(-c2ccccc2)o1  Bacterial Biotransformation      Compound metabolized
 5  CN1C(=O)CCS(=O)(=O)C1c1ccc(Cl)cc1 (stereo unspecified)  Bacterial Biotransformation  Compound NOT metabolized
 6  C=CCc1ccccc1OCC(O)CNC(C)C (stereo unspecified)  Bacterial Biotransformation      Compound metabolized
 7  OCCN1CCN(CCCN2c3ccccc3Sc3ccc(C(F)(F)F)cc32)CC1  Bacterial Biotransformation      Compound metabolized
 8  Cc1ccc(S(=O)(=O)NC(=O)NN2CCCCCC2)cc1 [TOLAZAMIDE]  Bacterial Biotransformation      Compound metabolized
 9  CCCc1nc2c(C)cc(-c3nc4ccccc4n3C)cc2n1Cc1ccc(-c2ccccc2C(=O)O)cc1  Bacterial Biotransformation      Compound metabolized
10  C[C@@H]1C[C@H]2[C@@H]3CCC4=CC(=O)C=C[C@]4(C)[C@@]3(F)[C@@H](O)C[C@]2(C)[C@@]1(O)C(=O)CO  Bacterial Biotransformation      Compound metabolized
11                 Nc1nc2ccc(OC(F)(F)F)cc2s1  Bacterial Biotransformation      Compound metabolized
12  O=C1NCC2(CCN(CCc3ccccc3)CC2)O1 [FENSPIRIDE]  Bacterial Biotransformation  Compound NOT metabolized
13  CC(C)(C(=O)O)c1ccc(C(O)CCCN2CCC(C(O)(c3ccccc3)c3ccccc3)CC2)cc1 (stereo unspecified) [FEXOFENADINE]  Bacterial Biotransformation  Compound NOT metabolized
14  CC(C)NCC(O)c1ccc(NS(C)(=O)=O)cc1 (stereo unspecified)  Bacterial Biotransformation  Compound NOT metabolized
15  COc1ccccc1N1CCN(CC(O)COc2cccc3ccccc23)CC1 (stereo unspecified)  Bacterial Biotransformation  Compound NOT metabolized
16  Fc1ccc([C@@H]2CCNC[C@H]2COc2ccc3c(c2)OCO3)cc1  Bacterial Biotransformation      Compound metabolized
17           Cc1ccnc2c1NC(=O)c1cccnc1N2C1CC1  Bacterial Biotransformation  Compound NOT metabolized
18  COc1cc2nc(N3CCN(C(=O)c4ccco4)CC3)nc(N)c2cc1OC  Bacterial Biotransformation  Compound NOT metabolized
19        OC(Cn1cncn1)(Cn1cncn1)c1ccc(F)cc1F  Bacterial Biotransformation      Compound metabolized
20  COc1ccc2c(c1OC)C(=O)O[C@@H]2[C@H]1c2c(cc3c(c2OC)OCO3)CCN1C  Bacterial Biotransformation      Compound metabolized
21  O=C(Nc1ccccc1)OCC(CN1CCCCC1)OC(=O)Nc1ccccc1 (stereo unspecified)  Bacterial Biotransformation      Compound metabolized
22  CN1CCOC(c2ccccc2)c2ccccc2C1 (stereo unspecified)  Bacterial Biotransformation  Compound NOT metabolized
23  O=c1n(CCCN2CCN(c3cccc(Cl)c3)CC2)nc2ccccn12  Bacterial Biotransformation      Compound metabolized
24  CCOC(=O)[C@H](CCc1ccccc1)N[C@@H](C)C(=O)N1[C@H](C(=O)O)C[C@@H]2CCC[C@@H]21  Bacterial Biotransformation      Compound metabolized
25  CCC(COC(=O)c1cc(OC)c(OC)c(OC)c1)(c1ccccc1)N(C)C.O=C(O)/C=C\C(=O)O (stereo unspecified)  Bacterial Biotransformation  Compound NOT metabolized
26  CCOC(=O)[C@H](CCc1ccccc1)N[C@H]1CCc2ccccc2N(CC(=O)O)C1=O  Bacterial Biotransformation      Compound metabolized
27        Cc1ccc(/C(=C\CN2CCCC2)c2ccccn2)cc1  Bacterial Biotransformation      Compound metabolized
28  CC(CN(C)C)CN1c2ccccc2CCc2ccccc21.O=C(O)/C=C\C(=O)O (stereo unspecified) [TRIMIPRAMINE MALEATE]  Bacterial Biotransformation      Compound metabolized
29  Cc1nc2n(c(=O)c1CCN1CCC(c3noc4cc(F)ccc34)CC1)CCCC2O (stereo unspecified)  Bacterial Biotransformation  Compound NOT metabolized
30  Br.CN(C)CCCC1(c2ccc(F)cc2)OCc2cc(C#N)ccc21 (stereo unspecified) [CITALOPRAM HYDROBROMIDE]  Bacterial Biotransformation  Compound NOT metabolized
31  Cc1ccc(S(=O)(=O)NC(=O)NN2CC3CCCC3C2)cc1 (stereo unspecified) [GLICLAZIDE]  Bacterial Biotransformation      Compound metabolized
32  CN1C(C(=O)Nc2ccccn2)=C(O)c2sccc2S1(=O)=O  Bacterial Biotransformation  Compound NOT metabolized
33  COC(=O)[C@H]1[C@H]2C[C@@H]3c4[nH]c5cc(OC)ccc5c4CCN3C[C@H]2C[C@@H](OC(=O)c2cc(OC)c(OC)c(OC)c2)[C@@H]1OC  Bacterial Biotransformation  Compound NOT metabolized
34  COc1ccc2[nH]c([S+]([O-])Cc3ncc(C)c(OC)c3C)nc2n1 (stereo unspecified)  Bacterial Biotransformation      Compound metabolized
35  CC(C)c1c(C(=O)Nc2ccccc2)c(-c2ccccc2)c(-c2ccc(F)cc2)n1CC[C@@H](O)C[C@@H](O)CC(=O)O  Bacterial Biotransformation      Compound metabolized
36  CCc1nn(CCCN2CCN(c3cccc(Cl)c3)CC2)c(=O)n1CCOc1ccccc1  Bacterial Biotransformation  Compound NOT metabolized

* * *

# Experimental Conditions: human gut metagenome, 24 h, 2 µM
Recorded Metric: Bacterial Biotransformation

> print(dat)
                                   compound              recorded.metric   experimental.result
1  CCCc1nc(C(C)(C)O)c(C(=O)OCc2oc(=O)oc2C)n1Cc1ccc(-c2ccccc2-c2nnn[nH]2)cc1  Bacterial Biotransformation  Compound metabolized
2  CN1CC(=O)N2[C@H](c3ccc4c(c3)OCO4)c3[nH]c4ccccc4c3C[C@@H]2C1=O  Bacterial Biotransformation  Compound metabolized
3  COC(=O)C1=C(C)NC(C)=C(C(=O)OC(C)C)C1c1cccc2nonc12 (centres undefined)  Bacterial Biotransformation  Compound metabolized

* * *

# Experiment: The drug is tested on Z-012 corresponding to metagenome with ENA study accession number: PRJEB37062 and ENA sample accession number: ERS12561812 for biotransformation under anaerobic condition. The drug concentrations were measured over 9 timepoints collected between 0 and 24 hours of incubation by liquid-chromatography-coupled mass spectrometry (LC–MS)
# Experimental Conditions: 2 µM
Recorded Metric: Bacterial Biotransformation

> print(dat)
                                   compound       experimental.result
1  CN(C)CC(c1ccc(O)cc1)C1(O)CCCCC1.O=C(O)CCC(=O)O (centres undefined) [DESVENLAFAXINE SUCCINATE]  Compound NOT metabolized
2  CN1CCC(=C2c3ccccc3CCc3cccnc32)CC1.O=C(O)/C=C\C(=O)O.O=C(O)/C=C\C(=O)O [AZATADINE MALEATE]  Compound NOT metabolized
3  CCN1CCCC1CNC(=O)c1cc(S(N)(=O)=O)ccc1OC (centres undefined) [SULPIRIDE]  Compound NOT metabolized
4         CCOc1ccc(NC(C)=O)cc1 [PHENACETIN]  Compound NOT metabolized
5  C[C@@H]1C[C@H]2[C@@H]3CCC4=CC(=O)C=C[C@]4(C)[C@@]3(F)[C@@H](O)C[C@]2(C)[C@@]1(O)C(=O)CO [DEXAMETHASONE]      Compound metabolized
6  NC(CO)(CO)CO.O=C(c1ccccc1)c1ccc2n1CCC2C(=O)O (centres undefined) [KETOROLAC TROMETHAMINE]  Compound NOT metabolized
7  C=CCc1ccccc1OCC(O)CNC(C)C (centres undefined) [ALPRENOLOL]  Compound NOT metabolized
8  COC(=O)Nc1nc2ccc(C(=O)c3ccccc3)cc2[nH]1 [MEBENDAZOLE]      Compound metabolized
9  CC(C)NCC(O)COc1ccc(CCOCC2CC2)cc1 (centres undefined) [BETAXOLOL]  Compound NOT metabolized

* * *

# Experimental Conditions: human gut metagenome, 24 h, 2 µM
Recorded Metric: Bacterial Biotransformation

Molecule	Recorded Metric	Experimental Result
CC(=O)OCC(=O)[C@@]1(O)[C@@H](C)C[C@H]2[C@@H]3CCC4=CC(=O)C=C[C@]4(C)[C@@]3(F)[C@@H](O)C[C@@]21C [BETAMETHASONE ACETATE]	Bacterial Biotransformation	Compound metabolized
CC(C)NCC(O)COc1ccc(COCCOC(C)C)cc1.CC(C)NCC(O)COc1ccc(COCCOC(C)C)cc1.O=C(O)/C=C/C(=O)O (stereo not drawn) [BISOPROLOL FUMARATE]	Bacterial Biotransformation	Compound metabolized
